# Tested on: Sindbis virus TE/5'2J-GFP
# procedure.text: percent infected (GFP+ in RFP+ ISG-expressing cells); higher = more infection (less antiviral activity)
# experimental.parameters: experiment: confirmatory screen 3; BHK/NZAP-Zeo (ZAP)

sequence.code | percent infected
MKKSGVLFLLGIILLVLIGVQGTPVVRKGRCSCISTNQGTIHLQSLKDLKQFAPSPSCEKIEIIATLKNGVQTCLNPDSADVKELIKKWEKQVSQKKKQKNGKKHQKKKVLKVRKSQRSRQKKTT [CXCL9] | 82%
MALLLALSLLVLWTSPAPTLSGTNDAEDCCLSVTQKPIPGYIVRNFHYLLIKDGCRVPAVVFTTLRGRQLCAPPDQPWVERIIQRLQRTSAKMKRRSS [CCL19] | 92.5%
MTLRCLEPSGNGGEGTRSQWGTAGSAEEPSPQAARLAKALRELGQTGWYWGSMTVNEAKEKLKEAPEGTFLIRDSSHSDYLLTISVKTSAGPTNLRIEYQDGKFRLDSIICVKSKLKQFDSVVHLIDYYVQMCKDKRTGPEAPRNGTVHLYLTKPLYTSAPSLQHLCRLTINKCTGAIWGLPLPTRLKDYLEEYKFQV [SOCS2] | 92.2%

* * *

# Test system: Sindbis virus TE/5'2J-GFP
# procedure.text: percent infected (GFP+ in RFP+ ISG-expressing cells); higher = more infection (less antiviral activity)
# experimental.parameters: experiment: confirmatory screen 3; BHK/HA-Zeo (control)

sequence.code | measured.target | percent infected (%)
MGILYSEPICQAAYQNDFGQVWRWVKEDSSYANVQDGFNGDTPLICACRRGHVRIVSFLLRRNANVNLKNQKERTCLHYAVKKKFTFIDYLLIILLMPVLLIGYFLMVSKTKQNEALVRMLLDAGVEVNATDCYGCTALHYACEMKNQSLIPLLLEARADPTIKNKHGESSLDIARRLKFSQIELMLRKAL [ANKRD22] | Sindbis virus TE/5'2J-GFP | 93.2
MPSLWDRFSSSSTSSSPSSLPRTPTPDRPPRSAWGSATREEGFDRSTSLESSDCESLDSSNSGFGPEEDTAYLDGVSLPDFELLSDPEDEHLCANLMQLLQESLAQARLGSRRPARLLMPSQLVSQVGKELLRLAYSEPCGLRGALLDVCVEQGKSCHSVGQLALDPSLVPTFQLTLVLRLDSRLWPKIQGLFSSANSPFLPGFSQSLTLSTGFRVIKKKLYSSEQLLIEEC [DDIT4] | Sindbis virus TE/5'2J-GFP | 94.1
MTLNNVTMRQGTVGMQPQQQRWSIPADGRHLMVQKEPHQYSHRNRHSATPEDHCRRSWSSDSTDSVISSESGNTYYRVVLIGEQGVGKSTLANIFAGVHDSMDSDCEVLGEDTYERTLMVDGESATIILLDMWENKGENEWLHDHCMQVGDAYLIVYSITDRASFEKASELRIQLRRARQTEDIPIILVGNKSDLVRCREVSVSEGRACAVVFDCKFIETSAAVQHNVKELFEGIVRQVRLRRDSKEKNERRLAYQKRKESMPRKARRFWGKIVAKNNKNMAFKLKSKSCHDLSVL [GEM] | Sindbis virus TE/5'2J-GFP | 94.4

* * *

# System: Sindbis virus TE/5'2J-GFP;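 also: Interferon-defective BHK-21 derivatives, ZAP line overexpressing the rat ZAP N-terminal zinc finger domain fused to Zeocin resistance, GFP scored within live singlet TagRFP+ cells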
# procedure.text: percent infected (GFP+ in RFP+ ISG-expressing cells); higher = more infection (less antiviral activity)
# experimental.parameters: experiment: confirmatory screen 3; BHK/HA-Zeo (control)
Recorded percent infected values for a group of sequences are listed next.

sequence.code | percent infected
MHLCGGNGLLTQTDPKEQQRQLKKQKNRAAAQRSRQKHTDKADALHQQHESLEKDNLALRKEIQSLQAELAWWSRTLHVHERLCPMDCASCSAPGLLGCWDQAEGLLGPGPQGQHGCREQLELFQTPGSCYPAQPLSPGPQPHDSPSLLQCPLPSLSLGPAVVAEPPVQLSPSPLLFASHTGSSLQGSSSKLSALQPSLTAQTAPPQPLELEHPTRGKLGSSPDNPSSALGLARLQSREHKPALSAATWQGLVVDPSPHPLLAFPLLSSAQVHF [BATF2] | 93.1%
MSIMDHSPTTGVVTVIVILIAIAALGALILGCWCYLRLQRISQSEDEESIVGDGETKEPFLLVQYSAKGPCVERKAKLMTPNGPEVHG [SNN] | 93.3%
MSLRGSLSRLLQTRVHSILKKSVHSVAVIGAPFSQGQKRKGVEHGPAAIREAGLMKRLSSLGCHLKDFGDLSFTPVPKDDLYNNLIVNPRSVGLANQELAEVVSRAVSDGYSCVTLGGDHSLAIGTISGHARHCPDLCVVWVDAHADINTPLTTSSGNLHGQPVSFLLRELQDKVPQLPGFSWIKPCISSASIVYIGLRDVDPPEHFILKNYDIQYFSMRDIDRLGIQKVMERTFDLLIGKRQRPIHLSFDIDAFDPTLAPATGTPVVGGLTYREGMYIAEEIHNTGLLSALDLVEVNPQLATSEEEAKTTANLAVDVIASSFGQTREGGHIVYDQLPTPSSPDESENQARVRI [ARG2] | 92.7%
MKEDCLPSSHVPISDSKSIQKSELLGLLKTYNCYHEGKSFQLRHREEEGTLIIEGLLNIAWGLRRPIRLQMQDDREQVHLPSTSWMPRRPSCPLKEPSPQNGNITAQGPSIQPVHKAESSTDSSGPLEEAEEAPQLMRTKSDASCMSQRRPKCRAPGEAQRIRRHRFSINGHFYNHKTSVFTPAYGSVTNVRVNSTMTTLQVLTLLLNKFRVEDGPSEFALYIVHESGERTKLKDCEYPLISRILHGPCEKIARIFLMEADLGVEVPHEVAQYIKFEMPVLDSFVEKLKEEEEREIIKLTMKFQALRLTMLQRLEQLVEAK [RASSF4] | 89.1%
MPGKKARKNAQPSPARAPAELEVECATQLRRFGDKLNFRQKLLNLISKLFCSGT [PMAIP1] | 92%
MPVERMRMRPWLEEQINSNTIPGLKWLNKEKKIFQIPWMHAARHGWDVEKDAPLFRNWAIHTGKHQPGVDKPDPKTWKANFRCAMNSLPDIEEVKDKSIKKGNNAFRVYRMLPLSERPSKKGKKPKTEKEDKVKHIKQEPVESSLGLSNGVSDLSPEYAVLTSTIKNEVDSTVNIIVVGQSHLDSNIENQEIVTNPPDICQVVEVTTESDEQPVSMSELYPLQISPVSSYAESETTDSVPSDEESAEGRPHWRKRNIEGKQYLSNMGTRGSYLLPGMASFVTSNKPDLQVTIKEESNPVPYNSSWPPFQDLPLSSSMTPASSSSRPDRETRASVIKKTSDITQARVKSC [IRF2] | 89.4%
